# Test system: Jurkat cells
# METHOD NOTES: Apoptosis assay, annexin V-FITC/PI double staining, flow cytometry
# Type: cell-based, Human
# EXPERIMENTAL SETUP: 200 μM, 48 h
ENDPOINT NAME: apoptotic cells (early and advanced) with respect to the control

# count of solved cases: 3
COMPOUND	MEASURED
COc1cc([C@@H]2Oc3cc([C@H]4Oc5cc(O)cc(O)c5C(=O)[C@@H]4O)ccc3O[C@H]2CO)ccc1O [Compound 1b, silybin B, reference compound]	70%
COc1cc([C@@H]2Oc3cc([C@H]4Oc5cc(O)cc(O)c5C(=O)[C@@H]4O)ccc3O[C@H]2COP(=O)(O)OC[C@@H]2Oc3ccc([C@H]4Oc5cc(O)cc(O)c5C(=O)[C@@H]4O)cc3O[C@H]2c2ccc(O)c(OC)c2)ccc1O	4%
COc1cc([C@H]2Oc3cc([C@H]4Oc5cc(O)cc(O)c5C(=O)[C@@H]4O)ccc3O[C@@H]2COP(=O)(O)OC[C@H]2Oc3ccc([C@H]4Oc5cc(O)cc(O)c5C(=O)[C@@H]4O)cc3O[C@@H]2c2ccc(O)c(OC)c2)ccc1O	20%

Q: Provide measured apoptotic cells (early and advanced) with respect to the control value, entry: COc1cc([C@H]2Oc3cc([C@H]4Oc5cc(O)cc(O)c5C(=O)[C@@H]4O)ccc3O[C@@H]2CO)ccc1O [Compound 1a, silybin A, reference compound]
Ans: 70%

---

# METHOD NOTES: Apoptosis assay, annexin V-FITC/PI double staining, flow cytometry
# Type: cell-based, Human
# EXPERIMENTAL SETUP: human, Jurkat cells, 37 °C, Figure 4, read-out: viable cells (lower left quadrant)
viability at 48 h, 200 µM strictly under 20% means Yes; at 20% or over means No.

Consider the following illustrative entries.
COMPOUND	GROUP
COc1cc([C@H]2Oc3cc([C@H]4Oc5cc(O)cc(O)c5C(=O)[C@@H]4O)ccc3O[C@@H]2COP(=O)(O)OC[C@H]2Oc3ccc([C@H]4Oc5cc(O)cc(O)c5C(=O)[C@@H]4O)cc3O[C@@H]2c2ccc(O)c(OC)c2)ccc1O	No
COc1cc([C@H]2Oc3cc([C@H]4Oc5cc(O)cc(O)c5C(=O)[C@@H]4O)ccc3O[C@@H]2COP(=O)(O)OC[C@@H]2Oc3ccc([C@H]4Oc5cc(O)cc(O)c5C(=O)[C@@H]4O)cc3O[C@H]2c2ccc(O)c(OC)c2)ccc1O	No
COc1cc([C@@H]2Oc3cc([C@H]4Oc5cc(O)cc(O)c5C(=O)[C@@H]4O)ccc3O[C@H]2CO)ccc1O [Compound 1b, silybin B, reference compound]	Yes

Turning to the following compound.
Q: Strictly below 20% in viability at 48 h, 200 µM? COc1cc([C@@H]2Oc3cc([C@H]4Oc5cc(O)cc(O)c5C(=O)[C@@H]4O)ccc3O[C@H]2COP(=O)(O)OC[C@@H]2Oc3ccc([C@H]4Oc5cc(O)cc(O)c5C(=O)[C@@H]4O)cc3O[C@H]2c2ccc(O)c(OC)c2)ccc1O
Ans: No
